B1: HEEH_KT_rd6_0790 (parent)
chain: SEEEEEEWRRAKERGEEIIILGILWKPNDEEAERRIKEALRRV

Variants of: B1
Test: folding stability dG (cDNA display proteolysis); higher = more stable
Conditions: PBS, room temperature
READOUT_LABEL: folding stability dG

# query: folding stability dG of entry `D29G` 1 kcal/mol

Any idea what folding stability dG was measured for `A11S` ? 1.65 kcal/mol

Which value of folding stability dG has been reported for `I19L` in the records? 2.12 kcal/mol

For the variant `K37G` , what folding stability dG is on record? 1.43 kcal/mol

Param item = `R34W` ; retrieve measured folding stability dG. 1.92 kcal/mol

# folding stability dG lookup, item `E16D` 1.95 kcal/mol

Using the record for `E7Y` , report its folding stability dG. 2.19 kcal/mol

I would be grateful if you could share the reported folding stability dG for `R14T` . 1.79 kcal/mol

# lookup: folding stability dG of `V43L` 2.79 kcal/mol

Which folding stability dG value is on record for `L40M` ? 1.76 kcal/mol

Any idea what folding stability dG was measured for `R41T` ? 1.81 kcal/mol

May I ask what folding stability dG has been recorded for `L24R` ? 1.95 kcal/mol

Name the reported folding stability dG value associated with the variant `K26L` 1.65 kcal/mol

Reported folding stability dG, variant `W25R` : ____ 0.67 kcal/mol

Which folding stability dG value belongs to `R9I` ? 1.94 kcal/mol

# query: folding stability dG of entry `R42L` 2.09 kcal/mol

Consider the variant shown here: `A39F` What is its recorded folding stability dG? 1.69 kcal/mol

// folding stability dG lookup, key: `V43T` 1.88 kcal/mol

Data request, read-out folding stability dG, for `E38V` 1.46 kcal/mol

Request the reported folding stability dG associated with `R42C` 1.95 kcal/mol

// folding stability dG lookup, key: `R34Q` 2.14 kcal/mol

Quick one: folding stability dG of `S1F` ? 2.71 kcal/mol

What folding stability dG value was documented for this variant, `V43D` ? 1.69 kcal/mol

Return reported folding stability dG; argument: `A32R` 1.12 kcal/mol

So what does the record say about folding stability dG for `S1Q` ? 2.15 kcal/mol

So what does the record say about folding stability dG for `R35H` ? 1.61 kcal/mol

Recorded folding stability dG of `A39Q` , please. 1.6 kcal/mol

Bench note: what folding stability dG did `E13Q` show? 2.15 kcal/mol

Need folding stability dG of `K26H` , thanks. 1.46 kcal/mol

For `R14G` , what is its reported folding stability dG? 1.42 kcal/mol

Sample `L40Q` — what was its folding stability dG? 1 kcal/mol

Dear colleague, I am looking for the recorded folding stability dG of the following variant: `A32Q` 1.07 kcal/mol

Which folding stability dG value is on record for `E3R` ? 2.4 kcal/mol

What does the data say about its folding stability dG? Entry: `E3I` 2.32 kcal/mol

Consider the variant shown here: `R41A` What is its recorded folding stability dG? 2.07 kcal/mol

Reported folding stability dG for `A11V` : what is it? 1.75 kcal/mol

// query folding stability dG value for entry `A32H` 0.931 kcal/mol

Field request: folding stability dG | item: `A32K` 0.96 kcal/mol

Need folding stability dG of `N28L` , thanks. 1.61 kcal/mol

Given the variant `P27S` , what is its reported folding stability dG? 1.02 kcal/mol

Query (variant): `A32T` ; field requested: folding stability dG 1.55 kcal/mol

Entry `E5R` : reported folding stability dG = ? 1.47 kcal/mol

Quick one: folding stability dG of `I36L` ? 1.49 kcal/mol

Returns the measured folding stability dG for the input variant. Input: `R34H` 1.73 kcal/mol

Please look up its folding stability dG: `G15Y` 1.44 kcal/mol

Quick one: folding stability dG for `E17F` ? 1.92 kcal/mol

Give its folding stability dG value. Item: `R42K` 2.14 kcal/mol

# lookup: folding stability dG of `K26T` 2.12 kcal/mol

# query: folding stability dG of entry `E6G` 1.46 kcal/mol

Given `I23K` , state its recorded folding stability dG. 1.08 kcal/mol

What does the data say about its folding stability dG? Entry: `I20Q` 0.945 kcal/mol

Given the entry `G22P` , report its measured folding stability dG. 0.681 kcal/mol

Which folding stability dG is listed for `I23R` ? 0.853 kcal/mol

I would be grateful if you could share the reported folding stability dG for `D29V` . 1.25 kcal/mol

Need folding stability dG of `K37W` , thanks. 2.3 kcal/mol

Given the entry `I19Q` , report its measured folding stability dG. 1.69 kcal/mol

Given the variant `E5S` , what is its reported folding stability dG? 1.73 kcal/mol

Bench note: what folding stability dG did `W8Q` show? 0.919 kcal/mol

Item under review: `R35V` . Reported folding stability dG? 1.48 kcal/mol

Fill blank: measured folding stability dG of the variant `N28T` is ____. 1.38 kcal/mol

Query (variant): `L21K` ; field requested: folding stability dG 1.66 kcal/mol

What measured folding stability dG goes with `I18N` ? 1.06 kcal/mol

Value lookup for folding stability dG; key = `I23D` 0.764 kcal/mol

# folding stability dG lookup, item `E17P` 2.5 kcal/mol

Need folding stability dG of `E2R` , thanks. 2.39 kcal/mol

Look at this variant and give its reported folding stability dG. `R10Y` 1.69 kcal/mol

Dear colleague, I am looking for the recorded folding stability dG of the following variant: `K37E` 2.49 kcal/mol

Which folding stability dG is listed for `I20F` ? 2.27 kcal/mol

Consider the variant `E16T` and give its measured folding stability dG. 1.94 kcal/mol

Please give the measured folding stability dG for this variant: `R35Y` 1.18 kcal/mol

Item `I23Q` has what recorded folding stability dG? 0.969 kcal/mol

Tell me the measured folding stability dG of `E33A` , please. 1.72 kcal/mol

# query: folding stability dG of entry `E33I` 1.49 kcal/mol

What does the data say about its folding stability dG? Entry: `E16Q` 2.05 kcal/mol

Could you share which folding stability dG value was measured for `G15L` ? 1.6 kcal/mol

Need folding stability dG of `E30W` , thanks. 1.94 kcal/mol

Suppose we examine the variant `E4Q` ; what folding stability dG value has been reported? 2.2 kcal/mol

Which folding stability dG is reported for this variant? `G22T` 1.4 kcal/mol

Which folding stability dG is listed for `S1G` ? 2.63 kcal/mol

What does the data say about its folding stability dG? Entry: `I36M` 1.39 kcal/mol

folding stability dG for `E5Y` ? 2.2 kcal/mol

Sample `E3Y` — what was its folding stability dG? 2.44 kcal/mol

Please look up its folding stability dG: `E4F` 2.78 kcal/mol

Consider the variant shown here: `E33T` What is its recorded folding stability dG? 1.98 kcal/mol

What value of folding stability dG has been recorded for this entry: `L40W` 1.45 kcal/mol
